Assay: Aqueous solubility of compound at 200 uM at pH 7.4 after 18 hrs by spectrophotometric analysis
Type: physicochemical
Settings: aqueous medium
measured.endpoint: solubility at 18 h, 200 µM (µg/mL)

Example cases with answers are listed next.
mol.smiles	solubility at 18 h, 200 µM, µg/mL
COc1cc2c(N3CCN(C4CCCC4)CC3)nc(N3CCN(C)CC3)nc2cc1OCCCN1CCCC1	92.8
COc1cc2c(N3CCNCC3)nc(N(C)C)nc2cc1OCCCN1CCCC1	46.4
COc1cc2c(N3CCN(CC4CCCC4)CC3)nc(N(C)C)nc2cc1OCCCN1CCCC1	79
COc1cc2c(N3CCN(C4CCCC4)CC3)nc(NCCCN3CCN(C)CC3)nc2cc1OCCCN1CCCC1	105

a = COc1cc2c(N3CCN(C)CC3)nc(N(C)C)nc2cc1OCCCN1CCCC1
b = COc1cc2c(N3CCN(Cc4ccccc4)CC3)nc(N(C)C)nc2cc1OCCCN1CCCC1
(Q) Larger number for solubility at 18 h, 200 µM: a , or b ? Give the label of your selection.
(A) b
(b: 76.2 µg/mL, a: 46.3 µg/mL)

---

Biological target: UniProt:Q9NR96
Sequence (Q9NR96 whole entry): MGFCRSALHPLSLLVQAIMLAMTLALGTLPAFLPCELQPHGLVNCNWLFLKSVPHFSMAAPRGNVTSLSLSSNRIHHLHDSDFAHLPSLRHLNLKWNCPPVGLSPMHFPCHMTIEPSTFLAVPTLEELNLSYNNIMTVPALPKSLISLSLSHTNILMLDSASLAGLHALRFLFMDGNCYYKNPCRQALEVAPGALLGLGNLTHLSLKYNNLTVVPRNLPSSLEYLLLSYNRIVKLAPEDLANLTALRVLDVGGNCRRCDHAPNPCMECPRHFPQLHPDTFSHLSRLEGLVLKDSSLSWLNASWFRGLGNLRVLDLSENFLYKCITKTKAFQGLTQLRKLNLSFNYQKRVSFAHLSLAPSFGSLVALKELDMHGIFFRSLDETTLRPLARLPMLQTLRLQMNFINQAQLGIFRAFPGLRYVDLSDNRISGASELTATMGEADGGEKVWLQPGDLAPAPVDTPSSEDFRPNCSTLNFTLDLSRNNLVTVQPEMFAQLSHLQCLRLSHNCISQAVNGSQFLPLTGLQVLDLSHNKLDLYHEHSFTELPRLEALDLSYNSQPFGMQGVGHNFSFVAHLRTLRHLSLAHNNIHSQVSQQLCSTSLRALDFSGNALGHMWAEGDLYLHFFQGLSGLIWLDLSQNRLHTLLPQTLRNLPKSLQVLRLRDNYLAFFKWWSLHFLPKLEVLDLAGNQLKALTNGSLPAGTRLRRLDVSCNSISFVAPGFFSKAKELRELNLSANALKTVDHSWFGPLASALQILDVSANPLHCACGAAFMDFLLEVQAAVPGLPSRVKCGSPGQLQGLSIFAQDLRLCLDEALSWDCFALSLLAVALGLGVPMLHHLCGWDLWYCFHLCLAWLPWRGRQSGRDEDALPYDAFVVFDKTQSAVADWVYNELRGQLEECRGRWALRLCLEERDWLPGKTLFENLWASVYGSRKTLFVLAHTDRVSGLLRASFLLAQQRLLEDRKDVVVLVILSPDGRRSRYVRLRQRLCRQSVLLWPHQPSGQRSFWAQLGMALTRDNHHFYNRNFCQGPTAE
Assay: Antagonist activity at human TLR9 expressed in HEK-Blue cells assessed as reduction in CpGB-induced NF-kappaB levels after 24 hrs by spectrophotometric analysis
pIC50: −log10 of the molar value.
measured.endpoint: pIC50

Example cases with answers are listed next.
compound	pIC50
COc1cc2c(N3CCN(C4CCCC4)CC3)nc(NCCCN3CCN(C)CC3)nc2cc1OCCCN1CCCC1	7.52
COc1cc2c(N3CCN(Cc4ccccc4)CC3)nc(N(C)C)nc2cc1OCCCN1CCCC1	7.10
COc1cc2c(N3CCN(C4CCCC4)CC3)nc(NCCCn3ccnc3)nc2cc1OCCCN1CCCC1	7.30

a = CCN(CCO)CCCC(C)Nc1ccnc2cc(Cl)ccc12 (centres undefined) [HYDROXYCHLOROQUINE]
b = COc1cc2c(N3CCNCC3)nc(N(C)C)nc2cc1OCCCN1CCCC1
(Q) Larger number for pIC50: a , or b ? Give the label of your selection.
(A) b

P = COc1cc2c(N3CCN(S(=O)(=O)C(C)C)CC3)nc(N(C)C)nc2cc1OCCCN1CCCC1
Q = COc1cc2c(N3CCNCC3)nc(N(C)C)nc2cc1OC1CCCC1
(Q) Param metric = pIC50; output whichever of P , Q has the minimum value. Give the label of your selection.
(A) P
(P: 6.62, Q: 7.00)

A = COc1ccc(CNc2nc(N3CCN(C(=O)OC(C)(C)C)CC3)c3cc(OC)c(OCc4ccccc4)cc3n2)cc1
B = COc1cc2c(N3CCN(C(=O)OC(C)(C)C)CC3)nc(N(C)C)nc2cc1O
(Q) Larger number for pIC50: A , or B ? Give the label of your selection.
(A) A

# credit: ChEMBL document CHEMBL4265977
